Parameter: peptide exchange yield. Scope: all listed entries.
- measured_target: HLA-A*24 (human)
- assay_procedure: UV peptide exchange, anti-b2m ELISA

- binder: "FYSRLLQKF [SEQ ID No 203 peptide …]"
  peptide exchange yield: "50 to 75%"
- binder: "RYLNKAFHI [SEQ ID No 284 peptide …]"
  peptide exchange yield: "50 to 75%"
- binder: "AYLHSHALI [SEQ ID No 274 peptide …]"
  peptide exchange yield: "> 75%"
